particulars: 333.15 K; 3000 kPa; Liquid
endpoint: mass density (kg/m3)
All answers are understood in kg/m3, so give the number only.

Completed entries (count: 4):
INSERT INTO results (molecule, numeric_readout) VALUES
  ('CCCCCCCCCCCCCC[P+](CCCCCC)(CCCCCC)CCCCCC.N#C[N-]C#N [tetradecyl(trihexyl)phosphonium dicyanamide]', 880.2),
  ('CCCCCCCCCCCCCC[P+](CCCCCC)(CCCCCC)CCCCCC.[Br-] [tetradecyltrihexylphosphonium bromide]', 933.6),
  ('CCCCCCCCCCCCCC[P+](CCCCCC)(CCCCCC)CCCCCC.O=S(=O)([N-]S(=O)(=O)C(F)(F)F)C(F)(F)F', 1042.9),
  ('CCCCCCCCCCCCCC[P+](CCCCCC)(CCCCCC)CCCCCC.CS(=O)(=O)[O-] [trihexyltetradecylphosphonium methanesulfonate]', 909.3);

Let us move to another entry and its mass density.
(Q) Reported mass density for CCCCCCCCCCCCCC[P+](CCCCCC)(CCCCCC)CCCCCC.[Cl-] [trihexyl(tetradecyl)phosphonium chloride] : what is it?
(A) 870.6

###

The compounds listed here are annotated with their mass density.
particulars: 293.15 K; 20000 kPa; Liquid
All answers are understood in kg/m3, so give the number only.

Completed entries (count: 4):
INSERT INTO assay_data (compound, endpoint, numeric_readout) VALUES
  ('CCCCCCCCCCCCCC[P+](CCCCCC)(CCCCCC)CCCCCC.N#C[N-]C#N [tetradecyl(trihexyl)phosphonium dicyanamide]', 'mass density', 910.7),
  ('CCCCCCCCCCCCCC[P+](CCCCCC)(CCCCCC)CCCCCC.CS(=O)(=O)[O-] [trihexyltetradecylphosphonium methanesulfonate]', 'mass density', 942.2),
  ('CCCCCCCCCCCCCC[P+](CCCCCC)(CCCCCC)CCCCCC.O=S(=O)([N-]S(=O)(=O)C(F)(F)F)C(F)(F)F', 'mass density', 1081.4),
  ('CCCCCCCCCCCCCC[P+](CCCCCC)(CCCCCC)CCCCCC.[Br-] [tetradecyltrihexylphosphonium bromide]', 'mass density', 967);

Let us move to another entry and its mass density.
(Q) Reported mass density for CCCCCCCCCCCCCC[P+](CCCCCC)(CCCCCC)CCCCCC.[Cl-] [trihexyl(tetradecyl)phosphonium chloride] : what is it?
(A) 901.8

###

particulars: 303.15 K; 1000 kPa; Liquid
Numbers after ± are expanded uncertainties.
endpoint: mass density

Completed entries (count: 4):
INSERT INTO assay_data (molecule, endpoint, result) VALUES
  ('CCCCCCCCCCCCCC[P+](CCCCCC)(CCCCCC)CCCCCC.[Cl-] [trihexyl(tetradecyl)phosphonium chloride]', 'mass density', '887 ± 0.8 kg/m3'),
  ('CCCCCCCCCCCCCC[P+](CCCCCC)(CCCCCC)CCCCCC.O=S(=O)([N-]S(=O)(=O)C(F)(F)F)C(F)(F)F', 'mass density', '1063.3 ± 0.7 kg/m3'),
  ('CCCCCCCCCCCCCC[P+](CCCCCC)(CCCCCC)CCCCCC.CS(=O)(=O)[O-] [trihexyltetradecylphosphonium methanesulfonate]', 'mass density', '926.2 ± 0.7 kg/m3'),
  ('CCCCCCCCCCCCCC[P+](CCCCCC)(CCCCCC)CCCCCC.[Br-] [tetradecyltrihexylphosphonium bromide]', 'mass density', '950.9 ± 0.6 kg/m3');

(Q) Reported mass density for CCCCCCCCCCCCCC[P+](CCCCCC)(CCCCCC)CCCCCC.N#C[N-]C#N [tetradecyl(trihexyl)phosphonium dicyanamide] : what is it?
(A) 896.4 ± 0.8 kg/m3
